Sourced from paper PMC7822874

# Test system: P. berghei-ANKA-GFP-LucCON liver stage parasites in HepG2-A16-CD81EGFP cells
# TEST SUMMARY: P. berghei liver stage Pb-Luc assay, Method 1 (UCSD, 1536-well)
# Assay type: cell-based, Plasmodium berghei
# STUDY CONDITIONS: Method 1; Hill fit, 50% of maximum activity response; read-out: AC50
QUANTITY KIND: AC50

If you can, please state the reported AC50 value of "CCCN1C(CC(C)C)=N[S+](=O)([O-])c2cc(NC(=O)c3cccs3)ccc21" .
3.16 nM

If you can, please state the reported AC50 value of "Cc1ccc(NC2=C(c3ccc(C(F)(F)F)cc3)C(=O)c3ccccc32)cc1F" .
1410 nM

If you can, please state the reported AC50 value of "Cc1[nH]c2c(C)cccc2c(=O)c1Br" .
1580 nM

If you can, please state the reported AC50 value of O=C(Cc1ccc(O)cc1)N1CC(CNc2ccccc2)C2(C1)CN(c1ccccc1)C2 (stereo not shown) .
631 nM

If you can, please state the reported AC50 value of "C/C(=N\NC(=O)c1cccc(Br)c1)c1ccccn1" .
891 nM

If you can, please state the reported AC50 value of "O=C1C(c2ccc(C(F)(F)F)cc2)=C(Nc2ccc(Cl)cc2)c2ccccc21" .
282 nM

If you can, please state the reported AC50 value of "CCC(CC)c1cc([C@H]2CN3CC[C@H]2C[C@@H]3CN[S+](=O)([O-])c2cccs2)nc(-c2ccncc2)n1" .
708 nM

If you can, please state the reported AC50 value of "CC(=O)N(C)C1=C(N2CCOCC2)C(=O)c2ccccc2C1=O" .
1580 nM

If you can, please state the reported AC50 value of "COc1ccc(-n2nc(C)c([C@@H]3C=C[C@@H](NCc4ccc(F)cc4)C3)c2C)cc1" .
1780 nM

If you can, please state the reported AC50 value of "COc1ccccc1NS(=O)(=O)c1cc(NC(=O)c2ccc(Cl)nc2)ccc1Cl" .
2510 nM

* * *

# Tested on: P. berghei-ANKA-GFP-LucCON liver stage parasites in HepG2-A16-CD81EGFP cells
# TEST SUMMARY: P. berghei liver stage Pb-Luc assay, Method 1 (UCSD, 1536-well)
# Format: cell-based, Plasmodium berghei
# STUDY CONDITIONS: Plasmodium berghei, 48 h, P. berghei liver stage, 1 µM compound treatment (10 mM stocks), replicate 2, normalized, average of 2 wells on a 1536 well plate; read-out: PbLuc 1uM growth rep2
QUANTITY KIND: activity at 1 µM (%)
Kindly answer with a numeric value in %, unit omitted.

If you can, please state the reported activity at 1 µM value of COc1cccc(-c2c(C#N)c(N)nc3c2c(C)nn3-c2ccccc2)c1O [MLS001214341-01] .
95

If you can, please state the reported activity at 1 µM value of C/C(=N\Nc1ncnc2sc(C)c(C)c12)c1ccccn1 [MLS001176565-01] .
8

If you can, please state the reported activity at 1 µM value of Cc1nn(-c2ccccc2)c(C)c1/C=N/Nc1nc2ccccc2[nH]1 [MLS000332160-01] .
81

If you can, please state the reported activity at 1 µM value of CCOC(=O)c1sc2nc3c(SCCC#N)cc(C(=O)c4cc(F)ccc4O)cn3c(=O)c2c1C [MLS000393119-01] .
121

If you can, please state the reported activity at 1 µM value of CCn1cnc2c(Nc3cc(F)cc(F)c3)nc(C#N)nc21 [MLS002471782-01] .
128

If you can, please state the reported activity at 1 µM value of COc1cccc2sc(N3CCN(C(=O)c4ccc([N+](=O)[O-])o4)CC3)nc12 [MLS001234267-01] .
94

If you can, please state the reported activity at 1 µM value of O=C(c1ccc([N+](=O)[O-])o1)N1CCN(c2nc3c(Cl)cccc3s2)CC1 [MLS001234208-01] .
72

If you can, please state the reported activity at 1 µM value of Cc1ccc(-c2cc(C(F)(F)F)n3ncc(C(=O)N4CCCCC4c4cccnc4)c3n2)cc1 (stereo not shown) [MLS000729132-01] .
132

If you can, please state the reported activity at 1 µM value of O=C(CCl)Nc1ccc(Oc2cnc3ccccc3n2)cc1 [MLS000327546-01] .
119

If you can, please state the reported activity at 1 µM value of CN(C)Cc1c(O)ccc2oc(Cc3ccccc3)cc12 [MLS000039159-01] .
102

If you can, please state the reported activity at 1 µM value of Cc1ccccc1C1C(C#N)=C2N=C(N)c3c(sc4c3CCCCC4)N2C2=C1C(=O)CCC2 (stereo not shown) [MLS000543544-01] .
99

If you can, please state the reported activity at 1 µM value of O=C(Nc1ccc(S(=O)(=O)N2CCOCC2)cc1)c1cc(-c2cc(Cl)ccc2O)n[nH]1 [MLS000778989-01] .
90

If you can, please state the reported activity at 1 µM value of COc1cccc(C2C3=C(N=c4sc(=Cc5ccccc5O)c(=O)n42)c2ccccc2CC3)c1OC (stereo not shown) [MLS000580951-01] .
99

If you can, please state the reported activity at 1 µM value of O=C(Nc1ccc(Nc2ccncc2)cc1)c1ccc(Nc2ccnc3ccc([N+](=O)[O-])cc23)cc1 [MLS000766132-01] .
103

If you can, please state the reported activity at 1 µM value of CCOc1ccccc1NC(=O)Cn1c(-c2ccc(Cl)cc2)noc1=O [MLS000529487-01] .
128

If you can, please state the reported activity at 1 µM value of COc1cc(NC(=O)c2cc([N+](=O)[O-])ccc2NC(=O)CNC2CCCCC2C)cc(OC)c1 (stereo not shown) [MLS000950459-01] .
109

If you can, please state the reported activity at 1 µM value of COc1ccccc1CNCC(O)Cn1c2ccccc2c2ccccc21 (stereo not shown) [MLS000391556-01] .
98

If you can, please state the reported activity at 1 µM value of COc1cc(C)cc(CN2CCC(Cc3ccccc3)CC2)c1O [MLS001178265-01] .
95

If you can, please state the reported activity at 1 µM value of Cc1ccc(Nc2cc(C)nc(NCc3ccccc3)n2)cc1 [MLS000574704-01] .
54

* * *

# Tested on: P. berghei-ANKA-GFP-LucCON liver stage parasites in HepG2-A16-CD81EGFP cells
# TEST SUMMARY: P. berghei liver stage Pb-Luc assay, Method 1 (UCSD, 1536-well)
# Format: cell-based, Plasmodium berghei
# STUDY CONDITIONS: Plasmodium berghei, 48 h, 3 uM (compounds provided at 10 mM); average of 2 wells on a 1536 well plate; column 9; read-out: Pb-Luc (P. berghei liver stage), % of control, higher concentration, second repeat
Please respond with reported activity at 3 µM for every item in the list.
Kindly answer with a numeric value in %, unit omitted.

If you can, please state the reported activity at 3 µM value of "COc1ccccc1CNCC(O)(c1ccc(Cl)cc1)c1ccc(Cl)cc1" .
98

If you can, please state the reported activity at 3 µM value of "O=c1cc(CSc2ccc(Cl)cc2)nc(-c2ccccn2)[nH]1" .
5

If you can, please state the reported activity at 3 µM value of "O=C(NC1CC1)c1ccc(CSCc2ccccc2Cl)o1" .
9

If you can, please state the reported activity at 3 µM value of "CC1=C(CC(=O)c2ccc(Cl)cc2)C(=O)c2ccccc2C1=O" .
70

If you can, please state the reported activity at 3 µM value of "O=C(Nc1ccccc1O)c1ccc(NC(=O)C2CC2)cc1" .
10

* * *

Please respond with reported Log AC50 (M) for every item in the list.
# System: HepG2
# STUDY CONDITIONS: human, hepg2 cells, 48 h
Kindly answer with a numeric value in M, unit omitted.

If you can, please state the reported Log AC50 (M) value of "Cc1cc(Nc2ccc(Cl)cc2)nc(NCc2ccccc2)n1" .
-4.3643

If you can, please state the reported Log AC50 (M) value of "Cc1ccc(C)c(N2CCN(CCCNC(=O)c3cnn(-c4cccc(Cl)c4)c3C3CCN(C(=O)OC(C)(C)C)CC3)CC2)c1" .
-4.3643

If you can, please state the reported Log AC50 (M) value of "CC(C)CN(Cc1cc(=O)oc2cc(-c3ccccc3)c(O)cc12)CC(C)C" .
-4.3643

If you can, please state the reported Log AC50 (M) value of "CCN(CC)CCCNC(=O)c1ccc2c(c1)sc1nc(-c3ccc(C)cc3)cn12" .
-4.3643

If you can, please state the reported Log AC50 (M) value of "COc1ccc(-[n+]2c(-c3ccc(Br)cc3)cn3c2CCc2ccccc2-3)cc1.[Br-]" .
-4.3643

If you can, please state the reported Log AC50 (M) value of "O=C(Nc1ccc(Nc2ccncc2)cc1)c1ccc(Nc2ccnc3ccc([N+](=O)[O-])cc23)cc1[N+](=O)[O-]" .
-4.5643

If you can, please state the reported Log AC50 (M) value of "Cc1cc(=O)n(CC(=O)Nc2cccc(C(F)(F)F)c2)c(N2CCC(C)CC2)n1" .
-4.5143
